Below: a set of entries, each annotated with reported residual activity.
# Assayed System: High affinity nerve growth factor receptor (Homo sapiens) (UniProt P04629)
# Sequence (P04629 33-796 limits assumed): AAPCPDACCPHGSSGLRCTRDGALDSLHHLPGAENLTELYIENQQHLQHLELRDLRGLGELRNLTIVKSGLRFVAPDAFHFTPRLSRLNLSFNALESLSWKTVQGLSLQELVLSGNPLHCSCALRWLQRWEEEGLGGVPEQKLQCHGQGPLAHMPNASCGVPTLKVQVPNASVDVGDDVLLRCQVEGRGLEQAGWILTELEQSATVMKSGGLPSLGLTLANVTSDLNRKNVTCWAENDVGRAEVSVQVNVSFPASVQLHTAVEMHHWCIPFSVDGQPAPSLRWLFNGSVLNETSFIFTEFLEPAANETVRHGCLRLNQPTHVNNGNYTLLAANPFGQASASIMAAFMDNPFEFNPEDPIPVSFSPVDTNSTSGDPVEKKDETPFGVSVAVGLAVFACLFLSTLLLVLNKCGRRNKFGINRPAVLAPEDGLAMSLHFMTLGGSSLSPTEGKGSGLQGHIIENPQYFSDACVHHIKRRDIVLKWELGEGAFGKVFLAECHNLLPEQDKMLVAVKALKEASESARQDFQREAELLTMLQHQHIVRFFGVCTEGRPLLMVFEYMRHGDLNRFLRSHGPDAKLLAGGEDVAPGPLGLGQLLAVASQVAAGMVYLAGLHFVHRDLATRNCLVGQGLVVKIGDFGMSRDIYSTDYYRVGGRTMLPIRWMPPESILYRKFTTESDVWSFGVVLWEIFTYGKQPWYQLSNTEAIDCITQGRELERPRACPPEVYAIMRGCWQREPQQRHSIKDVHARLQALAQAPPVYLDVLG
# Cond: at 1 µM
Readout Label: residual activity (%)

smiles_representation=Cc1cc2ncc(-c3ccccc3)nc2cc1C readout_label="residual activity" units=% test_value=106
smiles_representation=O=c1c2ccccc2[nH]c(=S)n1CCN1CCC(=C(c2ccc(F)cc2)c2ccc(F)cc2)CC1 readout_label="residual activity" units=% test_value=82
smiles_representation=Cn1nc2c3c(cccc31)C(=O)c1ccccc1-2 readout_label="residual activity" units=% test_value=46
smiles_representation=Cc1ccc(NC2=CC(=O)c3sc(C)nc3C2=O)cc1 readout_label="residual activity" units=% test_value=89
smiles_representation=COc1cccc(-c2cc(=O)c3ccccc3o2)c1N readout_label="residual activity" units=% test_value=99
smiles_representation=Oc1n[nH]c2nnc(-c3c(-c4ccccc4)nn4ccccc34)cc12 readout_label="residual activity" units=% test_value=83
smiles_representation=N#CCCc1ccc2c(c1)-c1[nH]c3ccc([N+](=O)[O-])cc3c1CC(=O)N2 readout_label="residual activity" units=% test_value=54
smiles_representation=CCN(CC)CCCCN1c2ccccc2Oc2ccc(Cl)cc21 readout_label="residual activity" units=% test_value=90
smiles_representation=CCC(=O)Nc1ccc2ncnc(Nc3cccc(Br)c3)c2c1 readout_label="residual activity" units=% test_value=97
smiles_representation=COc1ccc(OC)c2c(=S)c3ccccc3[nH]c12 readout_label="residual activity" units=% test_value=78
smiles_representation=COc1ccc(S(=O)(=O)N(CCO)c2ccccc2CN(C)C/C=C/c2ccc(Cl)cc2)cc1 readout_label="residual activity" units=% test_value=87
smiles_representation=CC(=O)O/N=C1\C(=C2\C(=O)Nc3cc(Br)ccc32)Nc2ccccc21 readout_label="residual activity" units=% test_value=6
smiles_representation=COc1cc2ncnc(N3CCN(C(=O)Nc4ccc(Oc5ccccc5)cc4)CC3)c2cc1OC readout_label="residual activity" units=% test_value=71
smiles_representation=CC(C)n1cnc2c(NCc3ccccc3)nc(NCCCO)nc21 readout_label="residual activity" units=% test_value=93
smiles_representation=Cc1cc(Nc2nc(-c3ccccc3)nc3ccccc23)n[nH]1 readout_label="residual activity" units=% test_value=-2
smiles_representation=COc1cc2ncnc(Nc3ccc(NC(=O)c4ccccc4)cc3)c2cc1OC readout_label="residual activity" units=% test_value=73
smiles_representation=O=C1c2ccccc2-[n+]2ccc3c([nH]c4ccccc43)c21 readout_label="residual activity" units=% test_value=83
smiles_representation=COc1ccc(C(=O)Nc2sc3c(c2C(N)=O)CCCC3)cc1OC readout_label="residual activity" units=% test_value=58
smiles_representation=COc1cc2ncc(-c3ccccc3)nc2cc1OC readout_label="residual activity" units=% test_value=39
smiles_representation=Cc1nc(-c2ccccc2)c(-c2ccncc2)o1 readout_label="residual activity" units=% test_value=117
smiles_representation=Nc1ccc2ncnc(NCCc3ccc(Oc4ccccc4)cc3)c2c1 readout_label="residual activity" units=% test_value=89
smiles_representation=COc1cc2ncnc(Nc3ccc(Oc4ccccc4)cc3)c2cc1OC readout_label="residual activity" units=% test_value=135
smiles_representation=O=[N+]([O-])c1ccc(-c2nc(-c3ccc(F)cc3)c(-c3ccncc3)[nH]2)cc1 readout_label="residual activity" units=% test_value=96
smiles_representation=Nc1cccc(-c2cc3c(Oc4cccc(O)c4)ncnc3[nH]2)c1 readout_label="residual activity" units=% test_value=61
smiles_representation=CCN(CC)C(=O)c1ccc(Nc2nc(OCC3CCCCC3)c3nc[nH]c3n2)cc1 readout_label="residual activity" units=% test_value=8
smiles_representation=O=C1NC(=O)/C(=C\c2ccc3nccnc3c2)S1 readout_label="residual activity" units=% test_value=127
smiles_representation=CC(C)n1cnc2/c(=N/c3cccc(Cl)c3)nc(NCCO)[nH]c21 readout_label="residual activity" units=% test_value=24
smiles_representation=Oc1c2ccccc2c2c3c(cccc13)N=N2 readout_label="residual activity" units=% test_value=10
smiles_representation=Oc1ccc(-c2nc(-c3ccc(F)cc3)c(-c3ccncc3)[nH]2)cc1 readout_label="residual activity" units=% test_value=107
smiles_representation=CC#CC(=O)Nc1cc2c(Nc3ccc(F)c(Cl)c3)ncnc2cn1 readout_label="residual activity" units=% test_value=91
